Each recorded value in this set is attributed to ChEMBL document CHEMBL1255441.

- assay_text: Clearance in infant weighing 2 to 6.2 kg weight during extracorporeal membrane oxygenation at 50 mg/kg, iv dosed 2 to 3 times per day as bolus dose
- Type: ADME, organism-based
- Parameters: dose 50 mg/kg, route intravenous
- test_settings: human, in vivo
outcome_measure: clearance (mL/min)

[
  {
    "molecule": "CO/N=C(\\C(=O)N[C@@H]1C(=O)N2C(C(=O)O)=C(COC(C)=O)CS[C@H]12)c1csc(N)n1 [CEFOTAXIME]",
    "outcome_measure": "clearance",
    "unit_descriptor": "mL/min",
    "result_number": 4.33
  }
]

* * *

- assay_text: Elimination half life in infant weighing 2 to 6.2 kg weight during extracorporeal membrane oxygenation at 50 mg/kg, iv dosed 2 to 3 times in a day bolus dose
- Format: ADME, organism-based
- Parameters: dose 50 mg/kg, route intravenous
- test_settings: human, in vivo, read-out: beta t1/2 (converted)

[
  {
    "compound": "CO/N=C(\\C(=O)N[C@@H]1C(=O)N2C(C(=O)O)=C(COC(C)=O)CS[C@H]12)c1csc(N)n1 [CEFOTAXIME]",
    "half-life, h": 1.6
  }
]
